Recorded values, source the SangsterLogP compilation.

measured parameter: logP
Numbers only.

Item Cc1c2ccccc2cc2ccccc12 : provide logP
4.96

* * *

Assignment: determine reported logP for the given molecules.
measurement notes: method code SF-AS, from DOI: 10.1248/cpb.32.5003, PMID: 6534549
Answers are plain numbers.

> print(dat)
                chem.smiles  experimental.value
1  O=C(Cc1ccccc1)Nc1ccccc1F                2.62

Consider now this further molecule.
Return logP for the following molecule: O=C(Cc1ccccc1)Nc1ccccc1O
2.4

* * *

measurement notes: method code SF-CR, from DOI: 10.1042/bj1780443, PMID: 109087
details: pH 7.4
measured parameter: logD
Give bare numbers.

Fill in reported logD for this entry: Cc1cc(=O)oc2cc(O)ccc12
1.9
